- System: HUVEC
- assayExplanation: Cytoprotective activity against H2O2-induced oxidative stress in HUVEC cells after 18 hrs by Cell-Titer Blue assay
- Type: functional, cell-based
- condition: Homo sapiens
pEC50: −log10 of the molar value.
Listed here are molecules together with their documented pEC50.
measurementType: pEC50

O=C(/C=C/c1ccc(O)c(O)c1)NCCc1ccccc1 [CAFFEIC ACID PHENETHYL AMIDE]
5.70
O=C(/C=C/c1ccc(O)c(O)c1)OCCc1ccccc1
5.10
